The measurements presented in this section are drawn from the supplement of paper PMC8149375.

test system: CAKI-1; assay: minimum viability across doses, drug alone, relative to DMSO (fraction); higher = less growth inhibition; conditions: treatment: drug alone; 5 days
readout.name: minimum viability across doses
In your answer, state the number alone without any accompanying words.

Tell me its minimum viability across doses given "COc1cc2ncnc(Nc3ccc(F)c(Cl)c3)c2cc1NC(=O)/C=C/CN1CCCCC1" as the entry.
0.00809

New cases:
Tell me its minimum viability across doses given "Cc1cc2c(F)c(Oc3ncnn4cc(OC[C@@H](C)OC(=O)[C@H](C)N)c(C)c34)ccc2[nH]1" as the entry.
0.605

Tell me its minimum viability across doses given "CN(C)C1CCN(C(=O)c2ccc(NC(=O)Nc3ccc(-c4nc(N5CCOCC5)nc(N5CCOCC5)n4)cc3)cc2)CC1" as the entry.
0.0321

Tell me its minimum viability across doses given "CCCCCCCCCCCCc1ccc(S(=O)(=O)Nc2nncs2)cc1" as the entry.
0.959
